The origin of these recorded values is patent US20200038412A1.

assay.remarks: Pharmacokinetics of orally administered squalamine (ENT-01) in Stage 1
Format: in vivo, human
condition.notes: human, plasma, oral; PD patients; estimated from pharmacokinetic behavior of intravenously administered squalamine in prior clinical studies
attribute.measured: bioavailability

compound | observed.value
CC(C)[C@@H](CC[C@@H](C)[C@H]1CC[C@H]2[C@@H]3[C@H](O)C[C@H]4C[C@@H](NCCCNCCCCN)CC[C@]4(C)[C@H]3CC[C@]12C)OS(=O)(=O)O (single isomer, unassigned) [squalamine (ENT-01), squalamine] | < 0.3%
